The measured values listed here are drawn from patent US11254668B2.

pIC50 reference
- tgt: TYK2 (Homo sapiens (Human))
- Sequence (P29597 897-1176): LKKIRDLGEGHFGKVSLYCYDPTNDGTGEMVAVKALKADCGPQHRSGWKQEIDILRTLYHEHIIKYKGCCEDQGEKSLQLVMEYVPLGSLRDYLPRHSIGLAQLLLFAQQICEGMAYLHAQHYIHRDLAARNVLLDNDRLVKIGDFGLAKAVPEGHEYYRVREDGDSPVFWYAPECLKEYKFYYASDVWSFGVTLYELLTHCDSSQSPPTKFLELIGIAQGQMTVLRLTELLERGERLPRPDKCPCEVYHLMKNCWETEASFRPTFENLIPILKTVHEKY
- test.description: JAK Caliper Enzyme Assay at 1 mM ATP, TYK2
- Format: biochemical
Scale explanation: pIC50 corresponds to minus log10 of a concentration expressed in moles per litre.

[
  {
    "smiles.entry": "CS(=O)(=O)N1CC(CC#N)(n2ccc(-c3nc(-c4cccnc4N)cc4ncccc34)n2)C1",
    "outcome.measure": "pIC50",
    "endpoint.value": 7.12
  },
  {
    "smiles.entry": "N#CC[C@]1(n2ncc(-c3cc(-c4cccnc4N)cc4ncccc34)n2)C[C@H](C#N)C1",
    "outcome.measure": "pIC50",
    "endpoint.value": 5.16
  },
  {
    "smiles.entry": "COc1ncc(-c2cc3ncccc3c(-c3ccn(C4(CC#N)CN(S(C)(=O)=O)C4)n3)n2)cn1",
    "outcome.measure": "pIC50",
    "endpoint.value": 5.69
  },
  {
    "smiles.entry": "Cn1cc(-c2cc3ncccc3c(-c3ccn(C4(CC#N)CN(S(=O)(=O)C5CC5)C4)n3)n2)cn1",
    "outcome.measure": "pIC50",
    "endpoint.value": 7.62
  },
  {
    "smiles.entry": "N#CC[C@]1(n2ncc(-c3cc(-c4ccc(N)cn4)cc4ncccc34)n2)C[C@@H](C#N)C1",
    "outcome.measure": "pIC50",
    "endpoint.value": 7.89
  }
]

Data point: Cc1cc(-c2cc3ncccc3c(-c3ccn(C4(CC#N)CN(S(C)(=O)=O)C4)n3)n2)cnc1N ; pIC50 = 6.31

Data point: N#CC[C@]1(n2ncc(-c3cc(-c4cccc(C(=O)O)n4)cc4ncccc34)n2)C[C@H](C#N)C1 ; pIC50 = 7.52

----------
IC50 reference
- tgt: JAK2 (Homo sapiens (Human))
- Sequence (O60674 849-1124): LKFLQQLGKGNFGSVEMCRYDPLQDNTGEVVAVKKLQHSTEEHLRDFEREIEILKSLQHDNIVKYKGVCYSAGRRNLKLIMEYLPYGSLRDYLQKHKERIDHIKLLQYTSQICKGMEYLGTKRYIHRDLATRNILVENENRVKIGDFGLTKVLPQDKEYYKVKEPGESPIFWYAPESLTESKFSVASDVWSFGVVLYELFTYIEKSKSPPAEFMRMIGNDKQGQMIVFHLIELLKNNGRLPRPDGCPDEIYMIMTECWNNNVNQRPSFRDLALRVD
- test.description: JAK Caliper Enzyme Assay at 1 mM ATP, JAK2
- Type: biochemical
- measurement.context: JAK Caliper enzyme assay
Lab book: enter the figure in nM, no units written.

[
  {
    "compound": "N#CC[C@]1(n2ncc(-c3cc(-c4ccc(C(N)=O)cc4)cc4ncccc34)n2)C[C@H](C#N)C1 [Example 433]",
    "units.text": "nM",
    "endpoint.value": 116
  }
]

Data point: N#CC[C@]1(n2ncc(-c3cc(-c4cn5ccnc5c(N)n4)cc4ncccc34)n2)C[C@@H](C#N)C1 [Example 423] ; IC50 = 183

Data point: Cc1nc(-c2cc(-c3cnn([C@]4(CC#N)C[C@H](C#N)C4)n3)c3cccnc3c2)ccc1O [Example 381] ; IC50 = 138

----------
pIC50 reference
- tgt: JAK3 (Homo sapiens (Human), UniProt P52333)
- Sequence (P52333 822-1111): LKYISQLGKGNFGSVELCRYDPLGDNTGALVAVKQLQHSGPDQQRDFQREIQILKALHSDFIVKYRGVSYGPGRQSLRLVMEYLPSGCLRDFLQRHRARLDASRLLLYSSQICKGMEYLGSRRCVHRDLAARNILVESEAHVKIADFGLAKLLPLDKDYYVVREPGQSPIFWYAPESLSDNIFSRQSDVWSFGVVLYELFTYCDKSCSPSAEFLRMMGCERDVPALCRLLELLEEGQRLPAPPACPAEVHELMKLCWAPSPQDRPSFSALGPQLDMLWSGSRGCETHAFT
- test.description: JAK Caliper Enzyme Assay at 1 mM ATP, JAK3
- Format: biochemical
- Protocol: Compounds of the invention were evaluated by in vitro methods to determine their respective ability to inhibit the JAK kinases (TYK2, JAK1, JAK2, JAK3). The human JAK inhibitory activity was determined by using a microfluidic assay to monitor phosphorylation of a synthetic peptide by the recombinant human kinase domain of each of the four members of the JAK family, JAK1, JAK2, JAK3 and TYK2. […]
Scale explanation: pIC50 corresponds to minus log10 of a concentration expressed in moles per litre.

[
  {
    "smiles.entry": "Cn1cc(-c2cc(-c3cnn([C@]4(CC#N)C[C@@H](C#N)C4)n3)c3cccnc3c2)cn1",
    "endpoint.value": 5.00
  },
  {
    "smiles.entry": "N#CC[C@]1(n2ccc(-c3nc(-c4cn[nH]c4)cc4ncccc34)n2)C[C@@H](c2ccn[nH]2)C1",
    "endpoint.value": 5.28
  }
]

As a next step, examine the compound that follows.
Data point: Cn1nc(-c2cc3ncccc3c(-c3ccn([C@]4(CC#N)C[C@H](C#N)C4)n3)n2)cc1CO ; pIC50 = 5.18
